- targetOrSystem: Prothrombin (Homo sapiens, UniProt P00734)
property: Ki (nM)

IN: // lookup Ki for `CN[C@H](Cc1ccccc1)C(=O)N1CCC[C@H]1C(=O)N[C@@H](CCCNC(=N)N)C(=O)c1nc2ccccc2n1C`
OUT: 8.1

[a] CN[C@H](Cc1ccccc1)C(=O)N1CCC[C@H]1C(=O)N[C@@H](CCCNC(=N)N)C(=O)c1ccccn1
[b] Cc1ccc(S(=O)(=O)N/C(N)=N\CCC[C@@H](NC(=O)[C@H]2CCCN2C(=O)[C@H](Cc2ccccc2)N(C)C(=O)OCc2ccccc2)C(O)c2nc3ccccc3s2)cc1 (stereo not given in full)
[c] Cc1ccc(S(=O)(=O)NC(=N)NCCC[C@H](NC(=O)[C@@H]2CCCN2C(=O)[C@@H](Cc2ccccc2)N(C)C(=O)OCc2ccccc2)C(O)c2nc3ccccc3s2)cc1 (stereo not given in full)
[d] CN[C@H](Cc1ccccc1)C(=O)N1CCC[C@H]1C(=O)N[C@@H](CCCN=C(N)N)C(=O)C1=NC(=O)C2C=CC=CC2=N1 (stereo not given in full)
IN: Arrange the 4 entries by Ki so the values rise. # list labels per requested ordering
OUT: d, a, c, b
(d: 15 nM, a: 85 nM, c: 5300 nM, b: 16000 nM)
